Source: PubChem BioAssay (NCI)

Recorded growth for the following molecules
test system: OVCAR-4 ovarian; assay: NCI-60 one-dose screen, 48 h (100 = growth as untreated, 0 = no growth, -100 = all killed); settings: 10 µM unless noted
Compounds without any hit were thinned out: in the full panel of roughly 83,000, 20% have a hit.

# molecule, growth [%]
records = [
    ("COC(=O)c1cc2c3c(cc(O)c2[nH]1)N(C(=O)C1Cc2cc(OC)c(OC)c(OC)c2N1)CC3CCl (centres undefined)", -98.7),
    ("CC1CCCN(CCCCCOc2ccc3oc4ccc(Cl)cc4c(=O)c3c2)C1 (centres undefined)", 63.2),
    ("C#CC[C@@H]1C[C@]2(C)[C@H]3CC[C@@H]4[C@H]5[C@H](C(=C)C)CC[C@]5(C(=O)O)CC[C@@]4(C)[C@]3(C)CC[C@H]2C(C)(C)[C@H]1O", -18.7),
    ("Nc1c(C(=O)Nc2ccccc2Cl)sc2nc3c(cc12)CN(Cc1ccccc1)CC3", 113),
    ("O=C(O)c1cn(C2CC2)c2cc(N3CCN(Cc4nnc(Nc5ccccc5)o4)CC3)c(F)cc2c1=O", 101),
    ("c1ccc2nc(N3CCOCC3)c(N3CCCCC3)nc2c1", 97.6),
    ("O=C(Nc1cc(Br)ccn1)c1cc2cc(Nc3nc(-c4ccccc4)nc4ccccc34)ccc2oc1=O", 111),
    ("COc1cccc(C(=O)OCCn2nc3c4c(cccc42)C(=O)c2ccccc2-3)c1O", 59.8),
    ("N#CCNc1ccc(C(=O)O)cc1", 117),
]
